protocol text: Pharmacokinetics of apixaban in rats, alone and after multiple doses of almonertinib
Assay type: in vivo, Sprague-Dawley (SD) rats
measurement context: male, Sprague-Dawley, rat, plasma, po, 0.5 mg/kg, rats, oral apixaban 0.5 mg/kg after almonertinib 15 mg/kg for nine days (group 7), mean ± SD, n = 6
assay endpoint: Cmax (ng/mL)
Report as a plain number; the unit ng/mL is understood.

For `COc1ccc(-n2nc(C(N)=O)c3c2C(=O)N(c2ccc(N4CCCCC4=O)cc2)CC3)cc1` , write its Cmax.
747

* * *

protocol text: Pharmacokinetics of apixaban in rats, alone and after multiple doses of almonertinib
Assay type: in vivo, Sprague-Dawley (SD) rats
measurement context: male, Sprague-Dawley, rat, plasma, po, 0.5 mg/kg, rats, oral apixaban 0.5 mg/kg alone (group 2), mean ± SD, n = 6
assay endpoint: AUC(0-t) (ng·h/mL)
Report as a plain number; the unit ng·h/mL is understood.

For `COc1ccc(-n2nc(C(N)=O)c3c2C(=O)N(c2ccc(N4CCCCC4=O)cc2)CC3)cc1` , write its AUC(0-t).
611
